# Tested on: MCF-7 Human Breast
# procedure_text: Inhibition of cell proliferation at 72 hours, MCF-7
# Assay type: cell-based
# details: MCF7, MCF-7, 72 hours
property_label: IC50 (µM)
Answers are plain numbers, in µM.

Use these answered entries as a reference point.
{"compound": "C#CCN1C(=S)N(c2ccc(C#N)c(C(F)(F)F)c2)C(=O)C1(C)C [BP-199]", "experimental_system": "MCF-7 Human Breast", "property_label": "IC50", "observed": 100}
{"compound": "CC(=O)O[C@H]1C(=O)[C@]2(C)[C@@H](OC(=O)NCCN3C(=S)N(c4ccc(C#N)c(C(F)(F)F)c4)C(=O)C3(C)C)C[C@H]3OC[C@@]3(OC(C)=O)[C@H]2[C@H](OC(=O)c2ccccc2)[C@]2(O)C[C@H](OC(=O)[C@H](O)[C@@H](NC(=O)c3ccccc3)c3ccccc3)C(C)=C1C2(C)C [BP-196]", "experimental_system": "MCF-7 Human Breast", "property_label": "IC50", "observed": 0.989}

Read the entry C=CCN1C(=S)N(c2ccc(C#N)c(C(F)(F)F)c2)C(=O)C1(C)C [BP-82] and write its reported IC50.
50

====

Answer each item with its documented activity at 10 µM.
# Tested on: PC-3 human cell line
# procedure_text: Relative growth inhibition after 6 days
# Type: cell-based
# details: Homo sapiens; 10^-5 M, cell density 10^4/well; read-out: No. of cells remaining expressed as a % of control

{"molecular_string": "CC(=O)O[C@H]1C(=O)[C@]2(C)[C@@H](OC(=O)NCCN3C(=S)N(c4ccc(C#N)c(C(F)(F)F)c4)C(=O)C3(C)C)C[C@H]3OC[C@@]3(OC(C)=O)[C@H]2[C@H](OC(=O)c2ccccc2)[C@]2(O)C[C@H](OC(=O)[C@H](O)[C@@H](NC(=O)c3ccccc3)c3ccccc3)C(C)=C1C2(C)C", "observed": "~100%"}

// each compound listed below needs its activity at 10 µM
1. C=CCN1C(=S)N(c2ccc(C#N)c(C(F)(F)F)c2)C(=O)C1(C)C
2. CC1(C)C(=O)N(c2ccc(C#N)c(C(F)(F)F)c2)C(=S)N1CCc1c[nH]cn1
3. C#CCN1C(=S)N(c2ccc(C#N)c(C(F)(F)F)c2)C(=O)C1(C)C

~70%
~40%
~50%

====

# Test system: NH DF Normal Dermal Fibroblast
# procedure_text: Inhibition of cell proliferation at 72 hours, NH DF
# Assay type: cell-based
# details: Homo sapiens, NHDF
Answer each item with its documented pIC50.
Give bare numbers, as −log10 of the molar value.

{"molecular_string": "C=CCN1C(=S)N(c2ccc(C#N)c(C(F)(F)F)c2)C(=O)C1(C)C", "pIC50": 4.04}

Now for the compound whose pIC50 we want.
Enter measured pIC50, system NH DF Normal Dermal Fibroblast, for the compound shown: CC(=O)O[C@H]1C(=O)[C@]2(C)[C@@H](OC(=O)NCCN3C(=S)N(c4ccc(C#N)c(C(F)(F)F)c4)C(=O)C3(C)C)C[C@H]3OC[C@@]3(OC(C)=O)[C@H]2[C@H](OC(=O)c2ccccc2)[C@]2(O)C[C@H](OC(=O)[C@H](O)[C@@H](NC(=O)c3ccccc3)c3ccccc3)C(C)=C1C2(C)C
6.97

====

# Test system: Ovcar 3 Human Ovary
# procedure_text: Inhibition of cell proliferation at 72 hours, Ovcar 3
# Assay type: cell-based
# details: Ovcar 3, 72 hours
property_label: pIC50
Give bare numbers, as −log10 of the molar value.

{"molecular_string": "C=CCN1C(=S)N(c2ccc(C#N)c(C(F)(F)F)c2)C(=O)C1(C)C", "experimental_system": "Ovcar 3 Human Ovary", "pIC50": 4.02}

Read the entry CC(=O)O[C@H]1C(=O)[C@]2(C)[C@@H](OC(=O)NCCN3C(=S)N(c4ccc(C#N)c(C(F)(F)F)c4)C(=O)C3(C)C)C[C@H]3OC[C@@]3(OC(C)=O)[C@H]2[C@H](OC(=O)c2ccccc2)[C@]2(O)C[C@H](OC(=O)[C@H](O)[C@@H](NC(=O)c3ccccc3)c3ccccc3)C(C)=C1C2(C)C and write its reported pIC50.
7.30

====

# experimental_system: human androgen receptors (Homo sapiens, UniProt P10275)
# Sequence (P10275 whole entry): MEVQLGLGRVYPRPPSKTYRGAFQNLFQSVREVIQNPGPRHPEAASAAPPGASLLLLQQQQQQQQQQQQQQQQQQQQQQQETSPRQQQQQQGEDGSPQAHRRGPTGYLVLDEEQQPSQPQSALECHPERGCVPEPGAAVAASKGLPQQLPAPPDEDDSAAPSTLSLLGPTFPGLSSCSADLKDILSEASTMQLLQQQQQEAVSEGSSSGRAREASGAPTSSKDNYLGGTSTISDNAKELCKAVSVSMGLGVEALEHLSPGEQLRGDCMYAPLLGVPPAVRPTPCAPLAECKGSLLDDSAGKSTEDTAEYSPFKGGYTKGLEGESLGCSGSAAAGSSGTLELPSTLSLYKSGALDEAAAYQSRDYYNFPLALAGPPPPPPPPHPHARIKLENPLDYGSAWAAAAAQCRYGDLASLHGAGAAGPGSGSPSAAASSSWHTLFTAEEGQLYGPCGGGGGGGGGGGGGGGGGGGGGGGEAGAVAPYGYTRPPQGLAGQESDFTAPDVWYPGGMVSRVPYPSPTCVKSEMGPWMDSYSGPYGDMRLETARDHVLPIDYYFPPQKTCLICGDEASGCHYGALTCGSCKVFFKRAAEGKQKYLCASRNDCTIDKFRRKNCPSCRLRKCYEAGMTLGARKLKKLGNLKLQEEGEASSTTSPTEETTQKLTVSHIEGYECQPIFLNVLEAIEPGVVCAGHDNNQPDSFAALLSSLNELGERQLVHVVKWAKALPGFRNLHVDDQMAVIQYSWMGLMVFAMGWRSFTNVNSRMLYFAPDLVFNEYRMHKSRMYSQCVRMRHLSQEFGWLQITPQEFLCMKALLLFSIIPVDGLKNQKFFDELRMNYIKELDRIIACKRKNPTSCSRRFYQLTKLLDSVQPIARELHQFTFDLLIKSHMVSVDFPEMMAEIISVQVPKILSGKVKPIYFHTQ
# procedure_text: Transactivation assay, anti-androgenic potency, CV1-3.9.2 cells
# details: stimulation with 0.1 nM testosterone
# Method: The androgenic and anti-androgenic activity of the current and novel compounds was tested in a specific assay described by Fuhrman et al. [J. Steroid Biochem. Molec. […] This assay uses CV-1 cells derived from monkeys transfected with human androgen receptors.
Answer each item with its documented log10 IC50.
Short version: log10 scale, IC50, nM.

Use these answered entries as a reference point.
{"molecule": "CC(C)(C)OC(=O)NCCN1C(=S)N(c2ccc(C#N)c(C(F)(F)F)c2)C(=N)C1(C)C [BP136]", "log10 IC50": 2.30}
{"molecule": "CC1(C)OCC(CN2C(=S)N(c3ccc(C#N)c(C(F)(F)F)c3)C(=N)C2(C)C)O1 (stereo not shown) [BP163]", "log10 IC50": 2.34}
{"molecule": "CC1(C)C(=O)N(c2ccc(C#N)c(C(F)(F)F)c2)C(=S)N1CC(O)CO (stereo not shown) [BP135]", "log10 IC50": 2.20}
{"molecule": "CC1(C)C(=O)N(c2ccc(C#N)c(C(F)(F)F)c2)C(=S)N1CCCCO [RU59063, reference compound]", "log10 IC50": 1.36}

// each molecule listed below needs its log10 IC50
1. CC(C)(C)OC(=O)NCCN1C(=S)N(c2ccc(C#N)c(C(F)(F)F)c2)C(=O)C1(C)C [BP137]
2. CC1(C)OCC(CN2C(=S)N(c3ccc(C#N)c(C(F)(F)F)c3)C(=O)C2(C)C)O1 (stereo not shown) [BP134]
3. C#CCN1C(=S)N(c2ccc(C#N)c(C(F)(F)F)c2)C(=O)C1(C)C [BP-199]
4. CC(=O)NCCN1C(=S)N(c2ccc(C#N)c(C(F)(F)F)c2)C(=O)C1(C)C [BP139]
5. CC1(C)C(=O)N(c2ccc(C#N)c(C(F)(F)F)c2)C(=S)N1CCN [BP138]

1.30
1.32
1.18
2.38
2.14

====

# experimental_system: human androgen receptors (Homo sapiens)
# Construct: expressed in transfected cells; host or cells: CV-1 monkey cells (clone CV1-3.9.2)
# procedure_text: Androgen activity of anti-androgens in CVI-3.9.2 cells (CAT activity)
# Type: cell-based
# details: 1 μM
Answer each item with its documented CAT Activity.
Answers are plain numbers, in cpm.

{"compound": "CC(C)(C)OC(=O)NCCN1C(=S)N(c2ccc(C#N)c(C(F)(F)F)c2)C(=N)C1(C)C [BP136]", "unit_label": "cpm", "CAT Activity": 1800}
{"compound": "CC1(C)OCC(CN2C(=S)N(c3ccc(C#N)c(C(F)(F)F)c3)C(=O)C2(C)C)O1 (stereo not shown) [BP134]", "unit_label": "cpm", "CAT Activity": 1600}
{"compound": "CC1(C)C(=O)N(c2ccc(C#N)c(C(F)(F)F)c2)C(=S)N1CCCCO [RU59063, reference compound]", "unit_label": "cpm", "CAT Activity": 2600}

Read the entry C=CCN1C(=S)N(c2ccc(C#N)c(C(F)(F)F)c2)C(=O)C1(C)C [BP-82] and write its reported CAT Activity.
1300

====

Answer each item with its documented IC50.
# Tested on: MCF-7/ADR Human Breast (adriamycin resistant)
# procedure_text: Inhibition of cell proliferation at 72 hours, MCF-7/ADR
# Format: cell-based
# details: NCI/ADR-RES, MCF-7/ADR (adriamycin resistant)
Give bare numbers, in µM.

Use these answered entries as a reference point.
{"molecular_string": "C#CCN1C(=S)N(c2ccc(C#N)c(C(F)(F)F)c2)C(=O)C1(C)C", "observed": 10}
{"molecular_string": "C=CCN1C(=S)N(c2ccc(C#N)c(C(F)(F)F)c2)C(=O)C1(C)C", "observed": 15.1}

Read the entry CC(=O)O[C@H]1C(=O)[C@]2(C)[C@@H](OC(=O)NCCN3C(=S)N(c4ccc(C#N)c(C(F)(F)F)c4)C(=O)C3(C)C)C[C@H]3OC[C@@]3(OC(C)=O)[C@H]2[C@H](OC(=O)c2ccccc2)[C@]2(O)C[C@H](OC(=O)[C@H](O)[C@@H](NC(=O)c3ccccc3)c3ccccc3)C(C)=C1C2(C)C and write its reported IC50.
10

The reported measurements were obtained from patent US5656651A.
